REPORTED_PROPERTY: melting point

Solved entries (count: 3):
COMPOUND: CNc1ccc2nc(-c3ccc(F)c(C)c3)c(-c3ccnc(NC(=O)c4ccc(OC)cc4)c3)n2n1 [Example 46]
melting point: 178 to 180 °C

COMPOUND: Cc1cc(-c2nc3cccnn3c2-c2ccnc(NC(=O)Nc3ccc(C#N)cc3)c2)ccc1F [Example 47-5]
melting point: 204 to 206 °C

COMPOUND: Cc1cccc(-c2nc3cccnn3c2-c2ccnc(NCC3CCCO3)c2)c1 (stereo not shown) [Example Compound 6-16]
melting point: 137 to 138 °C

Attention now shifts to the item below.
Req: # lookup: melting point of COc1ccc(C(=O)Nc2cc(-c3c(-c4cccc(Cl)c4)nc4cccnn34)ccn2)cc1.Cl
Resp: 236 to 238 °C
